# measurement_target: Cellular tumor antigen p53 (Homo sapiens) (UniProt P04637)
# Sequence (P04637 whole entry, looked up): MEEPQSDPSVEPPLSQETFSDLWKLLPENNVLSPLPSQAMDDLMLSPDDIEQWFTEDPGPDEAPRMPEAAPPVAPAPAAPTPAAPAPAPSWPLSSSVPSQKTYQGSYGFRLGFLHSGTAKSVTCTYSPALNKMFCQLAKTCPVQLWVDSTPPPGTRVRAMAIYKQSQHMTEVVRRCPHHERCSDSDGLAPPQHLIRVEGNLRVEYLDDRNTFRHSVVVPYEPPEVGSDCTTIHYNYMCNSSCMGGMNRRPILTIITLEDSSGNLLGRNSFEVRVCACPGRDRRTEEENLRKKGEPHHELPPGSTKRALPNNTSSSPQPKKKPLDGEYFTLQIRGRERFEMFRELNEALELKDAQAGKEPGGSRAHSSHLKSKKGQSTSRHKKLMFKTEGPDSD
# assay_text: nuclear p53 accumulation, HPV+ cells – imaging, p53-positive nuclei imaging, 24 h, 48 h (AID 1508601)
# setup_conditions: 24/48 h, Library stock concentration: 370 uM, hits give high values
Out of some 5,700 compounds screened, about 85 (1%) were called active. The sample as a whole holds a higher share of actives than the screen did.
recorded_endpoint: p53-positive nuclei, normalised (%)
# output: bare number, implied unit %

Query: Bench note: what p53-positive nuclei, normalised did CC(=O)NC(CSC(=S)NSc1ccc(SNC(=S)SCC(NC(C)=O)C(=O)O)cc1)C(=O)O (configuration not stated) show?
Response: -0.0406

Query: Bench note: what p53-positive nuclei, normalised did OCC1OC(n2cnc3c2NC=NCC3O)CC1O (configuration not stated) show?
Response: -0.058

Query: Bench note: what p53-positive nuclei, normalised did N#CSc1cc(SC#N)c(N)nc1N show?
Response: 0.164

Query: Bench note: what p53-positive nuclei, normalised did CCOC(=O)c1sc(NC(=O)c2ccco2)c(SC#N)c1C show?
Response: 0.143

Query: Bench note: what p53-positive nuclei, normalised did COC(=O)C#Cc1ccc([N+](=O)[O-])cc1 show?
Response: 0.132

Query: Bench note: what p53-positive nuclei, normalised did CC(=O)OC1C(=O)[C@]2(C)C(O)CC3OC[C@@]3(OC(C)=O)C2C(OC(=O)c2ccccc2)[C@]2(O)CC(OC(=O)C(O)C(NC(=O)c3ccccc3)c3ccccc3)C(C)=C1C2(C)C (some centres not stated) show?
Response: 0.755

Query: Bench note: what p53-positive nuclei, normalised did NC(=O)c1ncn(C2OC(CO)C(O)C2O)c1O (configuration not stated) show?
Response: -0.0645
